// provenance: patent US20230407373A1

Documented target (unweighted spectral count of the protein in the RNP capture) across a set of molecules
- Tested on: SARS-CoV-2 gRNA
- Assay type: binding
- conditions: […]; LC-MS/MS; Probe I sample (first 199 lines of Table 2)
observed property: target (unweighted spectral count of the protein in the RNP capture)

| molecule | obs value |
| --- | --- |
| TRA2A (protein, UniProt Q13595 2-282, looked up) Transformer-2 protein homolog …: SDVEENNFEGRESRSQSKSPTGTPARVKSESRSGSRSPSRVSKHSESHSRSRSKSRSRSRRHSHRRYTRSRSHSHSHRRRSRSRSYTPEYRRRRSRSHSPMSNRRRHTGSRANPDPNTCLGVFGLSLYTTERDLREVFSRYGPLSGVNVVYDQRTGRSRGFAFVYFERIDDSKEAMERANGMELDGRRIRVDYSITKRAHTPTPGIYMGRPTHSGGGGGGGGGGGGGGGGRRRDSYYDRGYDRGYDRYEDYDYRYRRRSPSPYYSRYRSRSRSRSYSPRRY | 6 |
| PA2G4 (protein, UniProt Q9UQ80 2-394, looked up) Proliferation-associated …: SGEDEQQEQTIAEDLVVTKYKMGGDIANRVLRSLVEASSSGVSVLSLCEKGDAMIMEETGKIFKKEKEMKKGIAFPTSISVNNCVCHFSPLKSDQDYILKEGDLVKIDLGVHVDGFIANVAHTFVVDVAQGTQVTGRKADVIKAAHLCAEAALRLVKPGNQNTQVTEAWNKVAHSFNCTPIEGMLSHQLKQHVIDGEKTIIQNPTDQQKKDHEKAEFEVHEVYAVDVLVSSGEGKAKDAGQRTTIYKRDPSKQYGLKMKTSRAFFSEVERRFDAMPFTLRAFEDEKKARMGVVECAKHELLQPFNVLYEKEGEFVAQFKFTVLLMPNGPMRITSGPFEPDLYKSEMEVQDAELKALLQSSASRKTQKKKKKKASKTAENATSGETLEENEAGD | 7 |
| MBNL2 (protein, UniProt Q5VZF2 1-373, looked up) Muscleblind-like protein 2: MALNVAPVRDTKWLTLEVCRQFQRGTCSRSDEECKFAHPPKSCQVENGRVIACFDSLKGRCSRENCKYLHPPTHLKTQLEINGRNNLIQQKTAAAMLAQQMQFMFPGTPLHPVPTFPVGPAIGTNTAISFAPYLAPVTPGVGLVPTEILPTTPVIVPGSPPVTVPGSTATQKLLRTDKLEVCREFQRGNCARGETDCRFAHPADSTMIDTSDNTVTVCMDYIKGRCMREKCKYFHPPAHLQAKIKAAQHQANQAAVAAQAAAAAATVMAFPPGALHPLPKRQALEKSNGTSAVFNPSVLHYQQALTSAQLQQHAAFIPTGSVLCMTPATSIDNSEIISRNGMECQESALRITKHCYCTYYPVSSSIELPQTAC | 7 |
| HNRNPA1 (protein, UniProt P09651 1-372, looked up) Heterogeneous nuclear …: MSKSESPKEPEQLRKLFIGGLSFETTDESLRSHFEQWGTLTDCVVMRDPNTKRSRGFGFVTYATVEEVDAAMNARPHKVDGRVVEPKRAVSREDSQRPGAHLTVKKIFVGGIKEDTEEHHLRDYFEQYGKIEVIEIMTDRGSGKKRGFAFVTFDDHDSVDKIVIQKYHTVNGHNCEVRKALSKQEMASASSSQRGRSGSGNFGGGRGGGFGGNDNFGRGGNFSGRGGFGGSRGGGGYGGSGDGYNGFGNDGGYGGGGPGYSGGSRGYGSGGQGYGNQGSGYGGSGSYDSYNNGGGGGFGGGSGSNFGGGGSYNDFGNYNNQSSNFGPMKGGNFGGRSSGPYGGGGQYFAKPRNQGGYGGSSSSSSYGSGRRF | 97 |
